Overview of recorded area over the GR curve for various molecules
Tested on: HCC1500
protocol-summary: area over the GR curve, 72 h; higher = more effect;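 note: Dye Drop or Deep Dye Drop imaging of viable cells in 384-well plates (Hoechst nuclei, LIVE/DEAD dye), nine half-log doses, GR normalized to DMSO controls and time-zero plates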
Respond with the bare value in GR.

INSERT INTO assay_data (molecule, experimental_system, metric, endpoint_result) VALUES
  ('CC(C)NC[C@@H](C(=O)N1CCN(c2ncnc3c2[C@H](C)C[C@H]3O)CC1)c1ccc(Cl)cc1 [Ipatasertib/GDC0068] (max 10 µM)', 'HCC1500', 'area over the GR curve', -0.0881),
  ('Cc1nn(C)c(COc2ccc(N3CCN(S(=O)(=O)N(C)C)CC3)cc2)c1-c1cccc2c(CCCOc3cccc4ccccc34)c(C(=O)O)n(CCN3CCOCC3)c12 (max 10 µM)', 'HCC1500', 'area over the GR curve', -0.063),
  ('CCc1cnn2c(NCc3ccc[n+]([O-])c3)cc(N3CCCC[C@H]3CCO)nc12 (max 1 µM)', 'HCC1500', 'area over the GR curve', 0.662),
  ('CCNC(=O)c1noc(-c2cc(C(C)C)c(O)cc2O)c1-c1ccc(CN2CCOCC2)cc1 [Luminespib/NVP-AUY922] (max 1 µM)', 'HCC1500', 'area over the GR curve', 0.546),
  ('Cc1nc(-c2cn3c(n2)-c2ccc(-c4cnn(C(C)(C)C(N)=O)c4)cc2OCC3)n(C(C)C)n1 [Taselisib/GDC0032] (max 10 µM)', 'HCC1500', 'area over the GR curve', 0.209),
  ('CO[C@H]1C[C@@H]2CC[C@@H](C)[C@@](O)(O2)C(=O)C(=O)N2CCCC[C@H]2C(=O)O[C@H]([C@H](C)C[C@@H]2CC[C@@H](OCCO)[C@H](OC)C2)CC(=O)[C@H](C)/C=C(\C)[C@@H](O)[C@@H](OC)C(=O)[C@H](C)C[C@H](C)/C=C/C=C/C=C/1C [Everolimus] (max 10 µM)', 'HCC1500', 'area over the GR curve', 1.26);

Now for another entry.
Query: Value wanted: area over the GR curve (HCC1500) of entry CCN1CCN(Cc2ccc(Nc3ncc(F)c(-c4cc(F)c5nc(C)n(C(C)C)c5c4)n3)nc2)CC1 (max 10 µM)
Response: 0.342
